Target: human CCR8 (human, UniProt P51685 1-355)
Test: cell-based or functional assay
value.type: extrapolated top plateau of hCCL1 curve with 5 µg/mL mAb, protocol #3

binder: anti-CCR8 mAb 1-16 (antibody, V domains shown, Murine hybridoma mAb) VH: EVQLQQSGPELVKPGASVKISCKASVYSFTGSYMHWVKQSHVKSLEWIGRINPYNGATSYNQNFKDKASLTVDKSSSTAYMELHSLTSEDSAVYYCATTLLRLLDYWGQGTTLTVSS VL: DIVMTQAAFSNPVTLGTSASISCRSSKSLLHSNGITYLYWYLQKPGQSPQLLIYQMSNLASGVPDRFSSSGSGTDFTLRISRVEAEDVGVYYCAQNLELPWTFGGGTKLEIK
recorded.measurement: 292 % of hCCL1 (100 nM)

binder: anti-CCR8 mAb 1-1 (antibody, V domains shown, Murine hybridoma mAb) VH: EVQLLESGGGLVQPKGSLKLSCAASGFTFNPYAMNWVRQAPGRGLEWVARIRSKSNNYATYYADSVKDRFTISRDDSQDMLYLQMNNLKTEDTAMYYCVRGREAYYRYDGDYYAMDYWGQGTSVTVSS VL: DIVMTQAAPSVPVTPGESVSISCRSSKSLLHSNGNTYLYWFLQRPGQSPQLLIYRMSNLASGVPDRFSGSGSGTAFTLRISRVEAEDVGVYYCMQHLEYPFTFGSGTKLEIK
recorded.measurement: 760000 % of hCCL1 (100 nM)

Turning now to a further binder:
Looking up anti-CCR8 mAb 1-22 (antibody, human IgG1, kappa, V domains shown, Humanized mAb, human IgG1 / kappa) VH: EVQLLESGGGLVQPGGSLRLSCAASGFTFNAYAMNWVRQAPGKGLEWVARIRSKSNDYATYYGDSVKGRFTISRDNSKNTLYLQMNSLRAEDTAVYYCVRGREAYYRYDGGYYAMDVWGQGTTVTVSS VL: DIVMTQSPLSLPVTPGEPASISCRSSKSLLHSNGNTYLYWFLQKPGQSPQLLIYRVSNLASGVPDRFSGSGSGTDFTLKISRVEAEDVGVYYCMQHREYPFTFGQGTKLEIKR , I found its extrapolated top plateau of hCCL1 curve with 5 µg/mL mAb, protocol #3 recorded as 76400 % of hCCL1 (100 nM)
